Cited source for all entries: patent US20240124536A1

Kindly supply the reported Human hepatocytes - Editing %, 1250, rep 1 values for the records listed here.
system: human TTR gene; assay: Editing activity in human primary hepatocytes (gRNA + ABE8.8 mRNA co-transfection, NGS of PCR amplicons); type: cell-based; conditions: 1250 ng/RNA/mL, rep 1
Write the value in % as a bare number.

Input line: Request the reported Human hepatocytes - Editing %, 1250, rep 1 associated with GA460: Human/Cyno TTR guide RNA, spacer UAUAGGAAAACCAGUGAGUC, gRNA SEQ ID NO: 14 (nucleic acid, chemistry not given here) guide: TATAGGAAAACCAGTGAGTCGTTTTAGAGCTAGAAATAGCAAGTTAAAATAAGGCTAGTCCGTTATCAACTTGAAAAAGTGGCACCGAGTCGGTGCTTTT
Output line: 38.33

Input line: Please look up its Human hepatocytes - Editing %, 1250, rep 1: GA461: Human/Cyno TTR guide RNA, spacer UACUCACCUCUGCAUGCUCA, gRNA SEQ ID NO: 15 (nucleic acid, chemistry not given here) guide: TACTCACCTCTGCATGCTCAGTTTTAGAGCTAGAAATAGCAAGTTAAAATAAGGCTAGTCCGTTATCAACTTGAAAAAGTGGCACCGAGTCGGTGCTTTT
Output line: 32.82

Input line: Given the entry GA459: Human TTR guide RNA, spacer GCAACUUACCCAGAGGCAAA, gRNA SEQ ID NO: 13 (nucleic acid, chemistry not given here) guide: GCAACTTACCCAGAGGCAAAGTTTTAGAGCTAGAAATAGCAAGTTAAAATAAGGCTAGTCCGTTATCAACTTGAAAAAGTGGCACCGAGTCGGTGCTTTT , report its measured Human hepatocytes - Editing %, 1250, rep 1.
Output line: 5.46

Input line: Returns the measured Human hepatocytes - Editing %, 1250, rep 1 for the input molecule. Input: GA457: Human TTR guide RNA, spacer GCCAUCCUGCCAAGAAUGAG, gRNA SEQ ID NO: 11 (nucleic acid, chemistry not given here) guide: GCCATCCTGCCAAGAATGAGGTTTTAGAGCTAGAAATAGCAAGTTAAAATAAGGCTAGTCCGTTATCAACTTGAAAAAGTGGCACCGAGTCGGTGCTTTT
Output line: 26.49
